# Tested on: human platelet rich plasma (PRP)
# Method: ADP induced platelet aggregation assay
# Particulars: Homo sapiens, Platelet, 5 min, read-out: PA IC50 (μM) @ 10 μM ADP, human PRP, 10 μM ADP, AUC at 5 minute
Recorded IC50 split into classes Low (below 0.2 µM), Medium (0.2 µM to below 0.6 µM), High (0.6 µM or more)

Which of the defined bands does the recorded IC50 of CC(C)(C)c1ccc(-c2c(F)cc(O)c3c2C(C)(C)CN3c2ccccc2NC(=O)Nc2ccc(OC(F)(F)F)cc2)cn1 [Example 165] sit within? Medium

Similarly, CCOC(=O)C1(C)CN(c2ccccc2NC(=O)Nc2csc(Cl)n2)c2c(O)ccc(Cl)c21 (centres unmarked) [Example 75] ? Medium

And CC(C)(C)CN1CCCC1c1ccc(NC(=O)Nc2ccccc2N2CC(C)(C)c3c(-c4nc5ccc(Cl)cc5o4)ccc(O)c32)cc1 (centres unmarked) [Example 109] ? Low

Now the same for CC(C)(C)CN1CCc2nc(NC(=O)Nc3ccccc3N3CC(C)(C)c4c(C(F)(F)F)ccc(O)c43)sc2C1 [Example 22] Medium

Same again, this time with CCC1(CC)CN(c2ccccc2NC(=O)Nc2ccc(OC(F)(F)F)cc2)c2c(O)ccc(Br)c21 [Example 39] Medium

Same lookup for CC1(C)CN(c2ccccc2NC(=O)Nc2ccc(OC(F)(F)F)cc2)c2c(O)ccc(-c3nc4cc(Cl)ccc4o3)c21 [Example 84] , please. Medium

Follow-up entry: CCC1(CC)CN(c2ccccc2NC(=O)Nc2ccc(C(C)(C)C)cc2)c2c(O)ccc(F)c21 [Example 26] High

Item: CC1(C)CN(c2ccccc2NC(=O)Nc2nc3ccc(Cl)cc3s2)c2c(O)cc(F)c(Br)c21 [Example 70] High

Subsequent entry: CC1(C)CN(c2ccccc2NC(=O)Nc2nc3ccc(Cl)nc3s2)c2c(O)cc(F)c(-c3nc4cc(Cl)ccc4s3)c21 [Example 141] Medium

And for CC1(C)CN(c2ccccc2NC(=O)Nc2csc(Cl)n2)c2c(O)ccc(C(F)(F)F)c21 [Example 16] ? Low

Likewise for Cc1c(-c2c(F)cc(O)c3c2C(C)(C)CN3c2ccccc2NC(=O)Nc2ccc(OC(F)(F)F)cc2)cnn1-c1ccccc1 [Example 186] ? High

Same read-out for Cc1cc(-c2c(F)cc(O)c3c2C(C)(C)CN3c2ccccc2NC(=O)Nc2ccc(OC(F)(F)F)cc2)cnc1F [Example 192] ? Medium

Now this one: CC1(C)CN(c2ccccc2NC(=O)Nc2ccc(OC(F)(F)F)cc2)c2c(O)ccc(-c3cnccn3)c21 [Example 132] High
